Target: PDE4B (human recombinant) (Homo sapiens, UniProt Q07343)
Construct: made in house
Sequence (Q07343 1-564 isoform Q07343-2): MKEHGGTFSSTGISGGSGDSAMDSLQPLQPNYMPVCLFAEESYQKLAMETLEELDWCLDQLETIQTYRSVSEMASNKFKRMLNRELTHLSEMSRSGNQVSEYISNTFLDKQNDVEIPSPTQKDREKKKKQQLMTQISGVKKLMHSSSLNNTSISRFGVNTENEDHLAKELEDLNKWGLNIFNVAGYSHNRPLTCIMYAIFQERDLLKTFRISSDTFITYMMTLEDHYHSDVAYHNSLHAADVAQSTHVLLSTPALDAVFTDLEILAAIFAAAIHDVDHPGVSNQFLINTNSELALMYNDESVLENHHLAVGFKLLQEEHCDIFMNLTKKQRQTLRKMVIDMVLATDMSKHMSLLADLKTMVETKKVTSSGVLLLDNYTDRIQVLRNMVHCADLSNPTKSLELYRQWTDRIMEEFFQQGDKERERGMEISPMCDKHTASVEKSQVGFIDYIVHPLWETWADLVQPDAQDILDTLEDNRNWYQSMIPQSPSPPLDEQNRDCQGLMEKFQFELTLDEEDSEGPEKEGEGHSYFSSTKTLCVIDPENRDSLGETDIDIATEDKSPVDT
Assay: Inhibition of PDE4B activity: SPA and/or Fluorescence Polarisation (FP) assay
Format: biochemical
Conditions: one reading (n=1) or average of 2 or more readings, read-out: PDE4B pIC50 (±about 0.5) (converted)
Method: The ability of compounds to inhibit catalytic activity at PDE4B or 4D (human recombinant), PDE3 (from bovine aorta), PDE5 (human recombinant) or PDE6 (from bovine retina) can optionally be determined by Scintillation Proximity Assay (SPA) in a 96-well format. The enzyme concentration is adjusted so that no more than 20% hydrolysis of the substrate defined below occurs in control wells without compound, during the incubation. […] Results are expressed as pIC50 values. […]
Where a name gives a salt, the structure may show the parent alone.
compounds and their reported IC50

Example compounds with recorded IC50:
compound=CCc1nc2c(cnn2CC)c(NC2CCOCC2)c1CNC(=O)c1cnc(C(C)C)nc1 system_under_test="PDE4B (human recombinant) (Homo sapiens, UniProt Q07343)" endpoint_label=IC50 result="0.126 to 1 nM"
compound=CCn1ncc2c(NC3CCOCC3)c(CNC(=O)c3cccc4c3OCC4)c(C)nc21 system_under_test="PDE4B (human recombinant) (Homo sapiens, UniProt Q07343)" endpoint_label=IC50 result="0.01 to 0.1 nM"
compound=CCc1nc2c(cnn2CC)c(NC2CCOCC2)c1CNS(=O)(=O)Cc1ccccc1 system_under_test="PDE4B (human recombinant) (Homo sapiens, UniProt Q07343)" endpoint_label=IC50 result="0.126 to 1 nM"
compound=CCn1ncc2c(NC3CCN(C(N)=O)CC3)c(CNC(=O)c3ccc(S(C)(=O)=O)cc3)c(C)nc21 system_under_test="PDE4B (human recombinant) (Homo sapiens, UniProt Q07343)" endpoint_label=IC50 result="0.126 to 1 nM"
compound="CCn1ncc2c(NC3CCN(C(N)=O)CC3)c(CNC(=O)c3ccc(N4CCOCC4)cc3)c(C)nc21 [Example 303, Formate Salt]" system_under_test="PDE4B (human recombinant) (Homo sapiens, UniProt Q07343)" endpoint_label=IC50 result="0.01 to 0.1 nM"
compound=CCn1ncc2c(NC3CCN(C(N)=O)CC3)c(CNC(=O)c3ccc(C(=O)NC)cc3)c(C)nc21 system_under_test="PDE4B (human recombinant) (Homo sapiens, UniProt Q07343)" endpoint_label=IC50 result="0.01 to 0.1 nM"
compound=CCc1nc2c(cnn2CC)c(NC2CCOCC2)c1CNC(=O)c1ccoc1C system_under_test="PDE4B (human recombinant) (Homo sapiens, UniProt Q07343)" endpoint_label=IC50 result="0.126 to 1 nM"
compound=CCn1ncc2c(NC3CCOCC3)c(CNC(=O)c3ccc4c(c3)CCCS4(=O)=O)c(C)nc21 system_under_test="PDE4B (human recombinant) (Homo sapiens, UniProt Q07343)" endpoint_label=IC50 result="0.126 to 1 nM"

Name the recorded IC50 of the item `CCn1ncc2c(NC3CCOCC3)c(CNC(=O)c3cnc(C)cn3)c(C(F)(F)F)nc21` in your answer.
0.126 to 1 nM

Fill in IC50 for record `CCn1ncc2c(NC3CCOCC3)c(CNC(=O)c3ccc(-n4cccc4)nc3)c(C)nc21`
0.126 to 1 nM

Answer with reported IC50 of `CCc1nc2c(cnn2CC)c(NC2CCOCC2)c1CNC(=O)c1ccc(C(C)(C)C)cc1`
0.01 to 0.1 nM

====

In this section we review reported IC50 values for a set of compounds.
Target: PDE4B (human recombinant) (Homo sapiens)
Construct: made in house
Experiment: Inhibition of PDE4B activity: SPA and/or Fluorescence Polarisation (FP) assay
Format: biochemical
Conditions: one reading (n=1) or average of 2 or more readings, read-out: PDE4B pIC50 (±about 0.5) (converted)
Method: The ability of compounds to inhibit catalytic activity at PDE4B or 4D (human recombinant), PDE3 (from bovine aorta), PDE5 (human recombinant) or PDE6 (from bovine retina) can optionally be determined by Scintillation Proximity Assay (SPA) in a 96-well format. The enzyme concentration is adjusted so that no more than 20% hydrolysis of the substrate defined below occurs in control wells without compound, during the incubation. […] Results are expressed as pIC50 values. […]

Please review the following examples before continuing.
compound="CCc1nc2c(cnn2CC)c(NC2CCOCC2)c1CNC(=O)c1cnc(C)s1 [Example 311]" result="0.01 to 0.1 nM"
compound="CCn1ncc2c(NC3CCN(C(N)=O)CC3)c(CNC(=O)c3ccc(C(C)C)cc3)c(C)nc21 [Example 263]" result="0.01 to 0.1 nM"
compound="CCc1nc2c(cnn2CC)c(NC2CCOCC2)c1CNC(=O)c1ccc2c(c1)CCCC2 [Example 177]" result="0.126 to 1 nM"

Quickly give me recorded IC50 for CCc1nc2c(cnn2CC)c(NC2CCOCC2)c1CNC(=O)c1ccoc1 [Example 154]
0.126 to 1 nM

====

Target: PDE4B (human recombinant) (Homo sapiens, UniProt Q07343)
Construct: made in house
Experiment: Inhibition of PDE4B activity: SPA and/or Fluorescence Polarisation (FP) assay
Format: biochemical
Settings: one reading (n=1) or average of 2 or more readings, read-out: PDE4B pIC50 (±about 0.5) (converted)
Procedure: The ability of compounds to inhibit catalytic activity at PDE4B or 4D (human recombinant), PDE3 (from bovine aorta), PDE5 (human recombinant) or PDE6 (from bovine retina) can optionally be determined by Scintillation Proximity Assay (SPA) in a 96-well format. The enzyme concentration is adjusted so that no more than 20% hydrolysis of the substrate defined below occurs in control wells without compound, during the incubation. […] Results are expressed as pIC50 values. […]
endpoint-label: IC50

Answered examples (6):
structure=CCc1nc2c(cnn2CC)c(NC2CCOCC2)c1CNC(=O)N1CCCCC1 result="0.126 to 1 nM"
structure=CCn1ncc2c(NC3CCOCC3)c(CNC(=O)c3ccc(C(N)=O)cc3)c(C)nc21 result="0.126 to 1 nM"
structure=CCc1nc2c(cnn2CC)c(NC2CCOCC2)c1CNC(=O)c1ccc(F)cc1F result="0.126 to 1 nM"
structure=CCn1ncc2c(NC3CCOCC3)c(CNC(=O)c3cccc(NC(C)=O)c3)c(C)nc21 result="0.01 to 0.1 nM"
structure=CCn1ncc2c(NC3CCOCC3)c(CNC(=O)c3ccc(C(C)(C)C)cc3O)c(C)nc21 result="0.01 to 0.1 nM"
structure=CCc1nc2c(cnn2CC)c(NC2CCOCC2)c1CNC(=O)c1ccco1 result="0.01 to 0.1 nM"

Annotate the molecule `CCc1nc2c(cnn2CC)c(NC2CCOCC2)c1CN1Cc2occc2C1=O` with its measured IC50.
0.126 to 1 nM

Provide measured IC50 value, entry: `CCc1nc2c(cnn2CC)c(NC2CCOCC2)c1CNC(=O)N1CCCC1`
0.126 to 1 nM

====

Item-by-item account of IC50
Molecular target: PDE4B (human recombinant) (Homo sapiens, UniProt Q07343)
Construct: made in house
Test: Inhibition of PDE4B activity: SPA and/or Fluorescence Polarisation (FP) assay
Assay type: biochemical
Settings: one reading (n=1) or average of 2 or more readings, read-out: PDE4B pIC50 (±about 0.5) (converted)

Examples from the recorded data:
compound=CCc1nc2c(cnn2CC)c(NC2CCOCC2)c1CNC(=O)c1cnc(C)cn1 result="0.01 to 0.1 nM"
compound=CCc1nc2c(cnn2CC)c(NC2CCOCC2)c1CNC(=O)NCc1ccccc1 result="0.126 to 1 nM"
compound=CCc1nc2c(cnn2CC)c(NC2CCN(C(N)=O)CC2)c1CNC(=O)c1ccccc1O result="0.01 to 0.1 nM"
compound=CCc1nc2c(cnn2CC)c(NC2CCN(C(N)=O)CC2)c1CNC(=O)c1ccc2c(=O)[nH][nH]c2c1 result="0.01 to 0.1 nM"
compound=CCn1ncc2c(NC3CCN(C(N)=O)CC3)c(CNC(=O)c3cccc4c3OCC4)c(C)nc21 result="0.01 to 0.1 nM"

Using PDE4B (human recombinant) (Homo sapiens, UniProt Q07343) as the test system, report measured IC50 of `CCn1ncc2c(NC3CCN(C(N)=O)CC3)c(CNC(=O)c3ccccc3O)c(C)nc21` .
0.01 to 0.1 nM

Write down the reported IC50 (system: PDE4B (human recombinant) (Homo sapiens, UniProt Q07343)) of `CCc1nc2c(cnn2CC)c(NC2CCN(C(N)=O)CC2)c1CNC(=O)c1cccc(NC(C)=O)c1`
0.01 to 0.1 nM

Give IC50 for `CCc1nc2c(cnn2CC)c(NC2CCOCC2)c1CNC(=O)c1csc(C)n1` tested on PDE4B (human recombinant) (Homo sapiens, UniProt Q07343).
0.126 to 1 nM

Provide IC50, system PDE4B (human recombinant) (Homo sapiens, UniProt Q07343), entry `CCc1nc2c(cnn2CC)c(NC2CCN(C(N)=O)CC2)c1CNC(=O)c1ccc(NC(C)=O)cc1O`
0.01 to 0.1 nM

Fill: IC50 (PDE4B (human recombinant) (Homo sapiens, UniProt Q07343)) for this compound `CCc1nc2c(cnn2CC)c(NC2CCOCC2)c1CNC(=O)c1cccc2c1CCC2`
0.126 to 1 nM
